# Test system: OVCAR-3 ovarian
# MEASUREMENT PROTOCOL: NCI tumour cell line growth inhibition, 48 h
I'd be grateful if you could share measured GI50 for these entries.

The compound listed as Fc1ccc([C@@H]2CCNC[C@H]2COc2ccc3c(c2)OCO3)cc1 shows GI50 equal to 10.5 µM

The compound listed as COc1ccc2c(c1)[nH]c(=O)c1c3cc(OC)c(OC)cc3cn21 shows GI50 equal to < 0.01 µM

The compound listed as O=c1c2c(=NCCN3CCCC3)cc3c(=O)n(CCCN4CCOCC4)c(=O)c4ccc(c(O)n1CCCN1CCOCC1)c2c4-3 shows GI50 equal to 0.0994 µM

The compound listed as COc1ccc(C(=O)/C=C/c2cc(-c3ccc4c(c3)OCO4)n[nH]2)cc1OC shows GI50 equal to 2.02 µM

The compound listed as Cc1c2oc3c(C)cc(F)c(C(=O)NC4C(=O)NC(C(C)C)C(=O)N5CCCC5C(=O)N(C)CC(=O)N(C)C(C(C)C)C(=O)OC4C)c3nc-2c(C(=O)NC2C(=O)NC(C(C)C)C(=O)N3CCCC3C(=O)N(C)CC(=O)N(C)C(C(C)C)C(=O)OC2C)c(N)c1=O (stereo not drawn) shows GI50 equal to 0.171 µM

The compound listed as COc1ccc2c(c1)C(=O)c1c-2c(N2CCN(C(=O)CNCCN(C)C)CC2)nc2ccccc12 shows GI50 equal to 2.01 µM

The compound listed as COc1cnc2c(c1)C(=O)c1c-2n(CCCNCCN2CCOCC2)c(=O)c2cc([N+](=O)[O-])ccc12 shows GI50 equal to 0.315 µM

The compound listed as CCOC(=O)c1ccccc1SC(C[N+](=O)[O-])c1ccccc1 (stereo not drawn) shows GI50 equal to 10.4 µM
